The values you see were collected from ChEMBL document CHEMBL5360531.

System under test: NAD-dependent protein deacylase sirtuin-5, mitochondrial (Homo sapiens)
Sequence (Q9NXA8 whole entry): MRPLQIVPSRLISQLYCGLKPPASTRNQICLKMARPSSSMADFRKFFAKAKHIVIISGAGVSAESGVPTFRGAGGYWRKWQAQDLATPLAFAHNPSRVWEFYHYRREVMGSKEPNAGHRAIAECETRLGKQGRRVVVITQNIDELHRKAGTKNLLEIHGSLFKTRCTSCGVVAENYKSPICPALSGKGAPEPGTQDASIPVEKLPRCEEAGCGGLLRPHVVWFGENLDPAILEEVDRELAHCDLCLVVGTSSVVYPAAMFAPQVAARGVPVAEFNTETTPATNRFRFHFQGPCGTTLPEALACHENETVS
Assay method text: Inhibition of human SIRT5 by fluorescence based analysis
Could you please mark MET for values of IC50 below 6 µM and NOT MET for values at or above it?

Solved cases below.
INSERT INTO measurements (compound, category) VALUES
  ('CC1=NN(c2nc(-c3ccccc3F)cs2)C(=O)/C1=C/c1ccc(C#N)cc1', 'NOT MET'),
  ('COC(=O)c1ccc(/C=C2/C(=O)N(c3nc(-c4cccc(C(F)(F)F)c4)cs3)N=C2C)cc1', 'MET'),
  ('COC(=O)c1ccc(/C=C2/C(=O)N(c3nc(-c4cccc(C#N)c4)cs3)N=C2C)cc1', 'NOT MET');

Q: Please check: IC50 for `COC(=O)c1ccc(/C=C2/C(=O)N(c3nc(-c4ccc(C)cc4)cs3)N=C2C)cc1` , strictly under 6 µM or not?
A: NOT MET
